# System under test: T1, human dimeric EGFR (EGFR.mFc) (human)
# T1 construct: Soluble dimeric EGFR construct
# Test method notes: SPR 37C, mAb captured by anti-human Fc, EGFR.mFc analyte
Answer each item with its documented t1/2.
Numbers only, in h.

# annotated cases, reported t1/2 shown
- H1H103N (antibody, human IgG1, V domains shown, Tested in human IgG1 Fc format (H1H); also called H1M103N) VH: EVQLVESGGGLVQPGGSLRLSCAASGFTFSSYDMHWVRQTTGKGLEWVSGIGTAGDTYYPGSVKGRFTISREDAKNSLYLQMNSLRAGDTAVYYCARVGYDWNFVAFDYWGQGTLVTVSS VL: DIVMTQSPLSLPVTPGEPASISCRSSQSLLHSNGYNYLDWYLQKPGQSPQLLIHLVSIRASGVPDRFSGSGSGTDFTLKISRVEAEDVGIYYCMQALQTPWTFGQGTKVEIK: 4.6
- H1H0085N (antibody, V domains shown, Tested in human IgG1 Fc format (H1H prefix); first obtained as H1M (mouse IgG1 Fc) from a hybridoma; also called H1M085N; H1H085N) VH: EVQLVESGGGLVQPGRSLRLSCAASGFTFDDYAMHWVRQAPGKGLEWVSGINWNSDKIAYADSVKGRFTISRDNAENSLFLQMNSLRPEDTALYYCVKRGDFWTEYYDYWGQGTLVTVSS VL: DIVMTQSPLSLPVTPGEPASISCRSSQSLLHSNGYNYLDWYLQKPGQSPHLLIYLVSTRASGVPDRFSGSGSGTDFTLKISRVEAEDVGVYYCIQALQTPWTFGQGTKVEIK: 4.77
- H1H158P (antibody, human IgG1, V domains shown, Human IgG1 Fc (H1H)) VH: QVQLVESGGGVVQPGGSLRLSCAASGFTFSIYGIHWVRQAPGKGLEWVAVISDDGSNKKYADSVKGRFTISRDNSKNTLYLQMNSLRAEDTAIFYCAKDRITGTHYYGMDVWGQGTTVTVSS VL: DIQMTQSPSSLSASVGDRVSITCRASQDISNYLAWFQQKPGKAPKSLIYAASSLQSGVPSKFSGSGSGIEFTLTISSLQPEDFSTYYCHQYNRFPWTFGQGTKVEIK: 19.6

Now let's try a different one.
According to the records, this binder H1H155P (antibody, human IgG1, V domains shown, Human IgG1 Fc (H1H)) VH: QVQLVESGGGVVQPGRSLRLSCAASGFTFSIYGMHWVRQAPGKGLEWVTVISDDGSKKYYVDSVKGRFTLSRDNSKNTLYLQMNSLRAEDTAVYYCARDRITGTNWYGMDVWGQGTTVTVSS VL: DIQMTQSPSSLSASVGDRVTITCRASQDISNYLAWFQQKPGKAPKSLIFAASSLQSGGPSKFSGSGSGTDFTLTISSLQPEDFATYYCQQYNRYPFTFGPGTKVDIK displays t1/2 of 1.82
